For each of the molecules below, state its IC50 at 72 h.
# PROTOCOL: Antiproliferative activity against human L02 cells assessed as cell growth inhibition incubated for 72 hrs by MTT assay
# Assay type: toxicity, cell-based
The figure you give is taken to be in µM; do not add the unit.

What does the data say about its IC50 at 72 h? Entry: C[C@@H]1CC[C@H]2[C@@H](C)C(OC(=O)c3ccccc3N(CCCl)CCCl)O[C@@H]3O[C@@]4(C)CC[C@@H]1[C@]32OO4 (some centres undefined) 8.24

What does the data say about its IC50 at 72 h? Entry: Cc1cc(C(=O)OC2O[C@@H]3O[C@@]4(C)CC[C@H]5[C@H](C)CC[C@@H]([C@H]2C)[C@@]35OO4)ccc1N(CCCl)CCCl (some centres undefined) 5

What does the data say about its IC50 at 72 h? Entry: "Cc1cc(C(=O)OC[C@@]2(C)O[C@@H]3O[C@@]4(C)CC[C@H]5[C@H](C)CC[C@@H]2[C@@]35OO4)ccc1N(CCCl)CCCl" 1.87

What does the data say about its IC50 at 72 h? Entry: "C[C@@H]1CC[C@@H]2[C@]34OO[C@](C)(CC[C@@H]13)O[C@H]4O[C@]2(C)COC(=O)c1ccccc1N(CCCl)CCCl" 7.68

What does the data say about its IC50 at 72 h? Entry: "C[C@@H]1CC[C@@H]2[C@]34OO[C@](C)(CC[C@@H]13)O[C@H]4O[C@]2(C)COC(=O)c1cccc(N(CCCl)CCCl)c1" 32

What does the data say about its IC50 at 72 h? Entry: "C[C@H]1[C@@H](O)O[C@@H]2O[C@@]3(C)CC[C@H]4[C@H](C)CC[C@@H]1[C@@]24OO3" 24.3

From: ChEMBL document CHEMBL5247590
